Each recorded value in this set is attributed to paper PMC8963254.

# Test system: A. baumannii ATCC 17978
# Type: cell-based, Acinetobacter baumannii
# run parameters: UTBLP alone, plate with niclosamide
Non-standard residues stand in square brackets, D forms with d. Residues, ends and D or L forms follow the SMILES beside them. *: point of attachment. Lys(Me3) = C[N+](C)(C)CCCC[C@H](N)C(=O)O; Octanoyl = CCCCCCCC(=O)*
parameter: MICUTBLP

INSERT INTO results (compound, test_target, experimental_result) VALUES
  ('CCCCCCCC(=O)N[C@@H](CCCCNC)C(=O)NCCCN(CCCNC(=O)[C@H](CCCCNC)NC(=O)CCCCCCC)CC(=O)N[C@@H](CCCCNC)C(N)=O [UTBLP 2]', 'A. baumannii ATCC 17978', '> 128 µg/mL'),
  ('CCCCCCCC(=O)NCCCC[C@H](NC(=O)CCCCCCC)C(=O)N[C@@H](CCCCN)C(=O)N[C@@H](CCCCN)C(=O)N[C@@H](CCCCN)C(=O)N[C@@H](CCCCN)C(N)=O [UTBLP 5] (Octanoyl-K(Octanoyl)KKKK-NH2)', 'A. baumannii ATCC 17978', '64 µg/mL'),
  ('CCCCCCCC(=O)NCCCC[C@H](NC(=O)CCCCCCC)C(=O)N[C@@H](CCCC[N+](C)(C)C)C(=O)N[C@@H](CCCC[N+](C)(C)C)C(=O)N[C@@H](CCCC[N+](C)(C)C)C(=O)N[C@@H](CCCC[N+](C)(C)C)C(N)=O [UTBLP 8] (Octanoyl-K(Octanoyl)[Lys(Me3)][Lys(Me3)][Lys(Me3)][Lys(Me3)]-NH2)', 'A. baumannii ATCC 17978', '> 128 µg/mL'),
  ('CCCCCCCC(=O)N[C@@H](CCCCN(C)C)C(=O)NCCCN(CCCNC(=O)[C@H](CCCCN(C)C)NC(=O)CCCCCCC)CC(=O)N[C@@H](CCCCN(C)C)C(N)=O [UTBLP 3]', 'A. baumannii ATCC 17978', '> 128 µg/mL');
